Field: EC50. Provide a value for each of the molecules that follow.
- measurement.target: rat mGlu5 (Rattus norvegicus (Rat), UniProt P31424)
- Sequence (P31424 21-1203): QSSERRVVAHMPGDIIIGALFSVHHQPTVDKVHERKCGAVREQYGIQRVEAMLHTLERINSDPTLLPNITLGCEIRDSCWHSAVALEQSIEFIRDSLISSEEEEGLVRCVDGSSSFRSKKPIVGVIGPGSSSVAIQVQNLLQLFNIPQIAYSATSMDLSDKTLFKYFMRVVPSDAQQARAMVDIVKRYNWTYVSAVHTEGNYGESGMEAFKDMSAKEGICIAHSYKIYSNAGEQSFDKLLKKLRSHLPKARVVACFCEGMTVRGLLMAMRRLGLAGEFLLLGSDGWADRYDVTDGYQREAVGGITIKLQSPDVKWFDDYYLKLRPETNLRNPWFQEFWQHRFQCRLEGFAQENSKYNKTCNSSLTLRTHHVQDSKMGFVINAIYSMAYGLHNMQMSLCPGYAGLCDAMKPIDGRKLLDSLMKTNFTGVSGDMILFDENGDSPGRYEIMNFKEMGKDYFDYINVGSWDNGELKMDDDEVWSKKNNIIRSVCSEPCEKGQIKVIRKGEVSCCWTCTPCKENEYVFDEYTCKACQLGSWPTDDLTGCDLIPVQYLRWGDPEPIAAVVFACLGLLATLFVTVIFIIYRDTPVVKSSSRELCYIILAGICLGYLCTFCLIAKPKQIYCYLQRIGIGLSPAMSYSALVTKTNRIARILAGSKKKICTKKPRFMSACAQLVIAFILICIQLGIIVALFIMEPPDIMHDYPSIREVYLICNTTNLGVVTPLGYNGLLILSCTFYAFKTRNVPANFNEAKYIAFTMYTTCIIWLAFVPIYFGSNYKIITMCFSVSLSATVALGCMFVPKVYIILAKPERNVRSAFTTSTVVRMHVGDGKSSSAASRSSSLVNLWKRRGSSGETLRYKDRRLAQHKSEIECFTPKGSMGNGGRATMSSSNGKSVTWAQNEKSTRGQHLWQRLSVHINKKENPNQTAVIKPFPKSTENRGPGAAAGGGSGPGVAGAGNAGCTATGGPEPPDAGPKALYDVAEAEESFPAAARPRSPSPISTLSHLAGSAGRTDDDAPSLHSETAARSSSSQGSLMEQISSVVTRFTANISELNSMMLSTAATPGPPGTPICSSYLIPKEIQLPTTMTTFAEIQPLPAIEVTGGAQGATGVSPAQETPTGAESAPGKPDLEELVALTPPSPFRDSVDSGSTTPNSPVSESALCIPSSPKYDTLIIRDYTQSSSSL
- test.protocol: mGlu5 Ca2+ flux assay
- Assay type: cell-based
- condition.info: PAM, glutamate EC20; >10,000 = no plateau; >30,000 = no measurable activity; read-out: rat mGlu5 EC50 or IC50
# value in nM; strip the unit string

The molecule listed as O=c1nc(OCCOc2ccccc2)ccn1-c1ccc(F)cc1 [Compound 17] has a reported EC50 of 1190

// N#Cc1cccc(-n2ccc(OCCOc3ccccc3)cc2=O)c1 [Compound 22] : EC50 value = 6020

// O=c1cc(OCCOc2cc(Cl)ccn2)ccn1-c1ccc(F)cc1 [Compound 49] : EC50 value = 8800

For record O=c1cc(OCCOc2ccccc2F)ccn1-c1ccc(F)cc1 [Compound 30] the listed EC50 is 1870

Value of EC50 reported for the molecule N#Cc1cc(F)cc(-n2ccc(OCCOc3ccccc3)cc2=O)c1 [Compound 23] is 1310

# EC50 (molecule: O=c1nc(OCCOc2ccccc2)ccn1-c1ccc(F)c(F)c1 [Compound 15] ) is 427

Lab book: EC50 of O=c1cc(OCCOc2ccccc2)ccn1-c1cc(F)cc(F)c1 [Compound 21] noted as 818

* * *

- measurement.target: rat mGlu3 (Rattus norvegicus (Rat), UniProt P31422)
- Sequence (P31422 23-879): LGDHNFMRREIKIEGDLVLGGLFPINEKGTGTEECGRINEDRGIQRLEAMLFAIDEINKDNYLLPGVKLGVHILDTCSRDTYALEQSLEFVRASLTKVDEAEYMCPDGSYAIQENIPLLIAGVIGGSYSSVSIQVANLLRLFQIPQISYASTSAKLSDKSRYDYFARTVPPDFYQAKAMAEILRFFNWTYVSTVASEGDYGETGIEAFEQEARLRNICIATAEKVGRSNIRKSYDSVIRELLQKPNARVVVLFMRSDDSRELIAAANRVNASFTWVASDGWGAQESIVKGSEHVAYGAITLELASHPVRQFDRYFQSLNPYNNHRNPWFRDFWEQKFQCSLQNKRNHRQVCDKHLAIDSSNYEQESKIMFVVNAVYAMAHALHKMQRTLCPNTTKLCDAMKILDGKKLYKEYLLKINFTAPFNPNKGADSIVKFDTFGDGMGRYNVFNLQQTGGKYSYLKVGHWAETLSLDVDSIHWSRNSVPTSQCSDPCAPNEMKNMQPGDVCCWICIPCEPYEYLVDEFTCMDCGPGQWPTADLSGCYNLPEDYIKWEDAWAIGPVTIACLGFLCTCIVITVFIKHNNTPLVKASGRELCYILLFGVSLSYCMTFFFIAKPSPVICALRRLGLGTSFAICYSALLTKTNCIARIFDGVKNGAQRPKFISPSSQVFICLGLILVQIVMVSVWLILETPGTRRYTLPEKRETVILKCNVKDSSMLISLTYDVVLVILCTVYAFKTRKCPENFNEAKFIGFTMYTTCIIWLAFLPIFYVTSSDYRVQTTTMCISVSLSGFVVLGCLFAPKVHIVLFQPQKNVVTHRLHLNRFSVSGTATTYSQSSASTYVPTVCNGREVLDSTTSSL
- test.protocol: mGlu3 Ca2+ flux assay
- Type: cell-based
- condition.info: NAM, glutamate EC80; >10,000 = decrease without plateau; >30,000 = no measurable activity
Assign log10(IC50) to each entry below.
// do not treat as linear: log10 of IC50, unit nM

The measured log10(IC50) associated with O=c1cc(OCCOc2ccccc2)ccn1-c1ccc(F)cc1 reads 2.86

CN(CCOc1ccn(-c2ccc(F)cc2)c(=O)c1)c1ccccc1 yielded log10(IC50) of 3.60

Sample N#Cc1cc(F)cc(-n2ccc(OCCOc3ccccc3)cc2=O)c1 ; log10(IC50) observed: 2.72

The measured log10(IC50) associated with O=c1cc(OCCOc2ncccc2F)ccn1-c1ccc(F)cc1 reads 3.11

# log10(IC50) (molecule: O=c1cc(OCCCc2ccccc2)ccn1-c1ccc(F)cc1 ) is 3.73

Record O=c1cc(OCCOc2ccccc2)ccn1-c1ccc(F)nc1 . Reported log10(IC50): 3.83

Lab book: log10(IC50) of O=c1cc(OCCOc2cccc(Cl)c2)ccn1-c1ccc(F)cc1 noted as 2.99

Entry under test: O=c1cc(OCCOc2cccc(F)c2)ccn1-c1ccc(F)cc1 . Its log10(IC50) was 2.71

For record CC(COc1ccn(-c2ccc(F)cc2)c(=O)c1)Oc1ccccc1 (stereo not drawn) the listed log10(IC50) is 2.86

Documented log10(IC50) of O=c1cc(OCCOc2cncc(Cl)c2)ccn1-c1ccc(F)cc1 : 3.45

// N#Cc1ccc(OCCOc2ccn(-c3ccc(F)cc3)c(=O)c2)cc1 : log10(IC50) value = 3.05

The value of log10(IC50) measured for the molecule O=c1cc(OCCOc2cccnc2Cl)ccn1-c1ccc(F)cc1 turned out to be 3.75

Per the records, this molecule ( CC(COc1ccccc1)Oc1ccn(-c2ccc(F)cc2)c(=O)c1 (stereo not drawn) ) has log10(IC50) equal to 3.06

log10(IC50) recorded for this molecule, O=c1cc(OCCOc2ccccc2)ncn1-c1ccc(F)cc1 , is 3.10

Lookup result for O=c1cc(OCCOc2ncccc2Cl)ccn1-c1ccc(F)cc1 ; measured log10(IC50): 2.65

Just so you know, measured log10(IC50) for O=c1cc(OCCOc2cccnc2F)ccn1-c1ccc(F)cc1 came out at 3.68

Measured log10(IC50), O=c1cc(OCCOc2cccc(F)c2F)ccn1-c1ccc(F)cc1 : 2.96

response.value for O=c1cc(OCCOc2ccccc2)ccn1-c1cc(F)cc(F)c1 (field: log10(IC50)) = 2.90

The measured log10(IC50) associated with N#Cc1ccc(OCCOc2ccn(-c3ccc(F)cc3)c(=O)c2)nc1 reads 3.14

Kindly note the recorded log10(IC50) for O=c1cc(OCCOc2ccc(Cl)cn2)ccn1-c1ccc(F)cc1 , which is 2.86
